Target: Nicotinamide N-methyltransferase (Homo sapiens, UniProt P40261)
Sequence (P40261 whole entry): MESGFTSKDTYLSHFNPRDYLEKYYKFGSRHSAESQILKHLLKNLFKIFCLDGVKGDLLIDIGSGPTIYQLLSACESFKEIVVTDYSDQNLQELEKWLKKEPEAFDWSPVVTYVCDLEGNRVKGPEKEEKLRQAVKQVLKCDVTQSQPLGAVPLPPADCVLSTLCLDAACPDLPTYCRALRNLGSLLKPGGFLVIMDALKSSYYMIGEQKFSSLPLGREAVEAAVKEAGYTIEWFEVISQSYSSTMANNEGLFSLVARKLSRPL
Experiment: Inhibition of N-terminal His6-tagged wild type human NNMT expressed in Escherichia coli NiCo21(DE3) assessed as reduction in 1-methylquinolinium level using quinoline as substrate in presence of SAM and measured every 27 seconds for 5.5 mins by fluorescence-based assay
Details: read-out: Ki
observed.property: Ki (nM)
Answers are plain numbers, in nM.

[ask] Data request, read-out Ki, for NC(=O)c1cccc(C#C[C@@H](CC[C@H](N)C(=O)O)C[C@H]2O[C@@H](n3cnc4c(N)ncnc43)[C@H](O)[C@@H]2O)c1
[reply] 0.5

* * *

target: UniProt Q8TEK3
Sequence (Q8TEK3 whole entry): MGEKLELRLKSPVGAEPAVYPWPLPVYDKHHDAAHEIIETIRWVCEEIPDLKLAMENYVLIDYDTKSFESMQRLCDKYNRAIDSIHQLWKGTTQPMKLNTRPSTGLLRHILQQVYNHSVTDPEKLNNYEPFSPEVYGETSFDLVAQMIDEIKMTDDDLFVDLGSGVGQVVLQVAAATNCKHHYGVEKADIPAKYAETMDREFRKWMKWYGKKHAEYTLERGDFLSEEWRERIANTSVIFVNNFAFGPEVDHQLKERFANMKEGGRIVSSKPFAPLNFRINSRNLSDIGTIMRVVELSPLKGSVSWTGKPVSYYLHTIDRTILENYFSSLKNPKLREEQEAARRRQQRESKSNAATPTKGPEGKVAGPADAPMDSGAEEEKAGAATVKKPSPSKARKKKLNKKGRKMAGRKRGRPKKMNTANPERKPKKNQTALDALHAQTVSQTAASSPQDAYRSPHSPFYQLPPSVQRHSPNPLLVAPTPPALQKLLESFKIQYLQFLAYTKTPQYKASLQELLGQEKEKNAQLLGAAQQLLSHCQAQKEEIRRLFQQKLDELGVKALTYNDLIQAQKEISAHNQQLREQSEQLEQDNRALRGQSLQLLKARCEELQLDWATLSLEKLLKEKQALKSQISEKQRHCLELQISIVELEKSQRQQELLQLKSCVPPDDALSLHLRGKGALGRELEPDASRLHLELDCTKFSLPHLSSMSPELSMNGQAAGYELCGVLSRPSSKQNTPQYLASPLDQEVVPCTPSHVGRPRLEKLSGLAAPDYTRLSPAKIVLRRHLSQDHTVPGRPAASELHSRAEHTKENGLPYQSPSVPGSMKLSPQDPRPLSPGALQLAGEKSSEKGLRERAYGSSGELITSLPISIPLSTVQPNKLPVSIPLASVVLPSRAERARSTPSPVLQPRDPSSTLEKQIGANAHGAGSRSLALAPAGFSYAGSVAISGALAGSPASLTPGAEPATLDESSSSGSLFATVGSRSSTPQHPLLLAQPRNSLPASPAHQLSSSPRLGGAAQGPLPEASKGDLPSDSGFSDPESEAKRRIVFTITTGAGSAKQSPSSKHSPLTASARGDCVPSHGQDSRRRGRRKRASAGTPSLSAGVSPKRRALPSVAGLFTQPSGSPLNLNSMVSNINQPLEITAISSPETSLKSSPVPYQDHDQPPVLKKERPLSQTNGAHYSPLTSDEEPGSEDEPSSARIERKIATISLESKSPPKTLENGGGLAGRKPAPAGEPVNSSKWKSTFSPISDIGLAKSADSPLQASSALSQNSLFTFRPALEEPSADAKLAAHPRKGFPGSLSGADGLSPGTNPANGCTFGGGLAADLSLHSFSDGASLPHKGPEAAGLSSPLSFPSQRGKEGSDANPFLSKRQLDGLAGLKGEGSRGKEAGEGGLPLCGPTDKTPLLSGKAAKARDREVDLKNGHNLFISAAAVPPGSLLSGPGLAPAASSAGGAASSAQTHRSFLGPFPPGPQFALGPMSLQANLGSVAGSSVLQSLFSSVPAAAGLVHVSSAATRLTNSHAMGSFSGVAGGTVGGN
pIC50: −log10 of the molar value.
observed.property: pIC50

[ask] Data request, read-out pIC50, for NC(=O)c1cccc(C#C[C@@H](CC[C@H](N)C(=O)O)C[C@H]2O[C@@H](n3cnc4c(N)ncnc43)[C@H](O)[C@@H]2O)c1
[reply] < 5.00

* * *

target: COMT (catechol O-methyltransferase) (Homo sapiens, UniProt P21964); assay: Inhibition of human COMT expressed in Escherichia coli at 1 uM assessed as reduction in SAH level using pyrocatechol as substrate in presence of SAM incubated for 15 mins by LC-MS/MS analysis relative to control; details: recombinant human COMT expressed in Escherichia coli, probe pyrocatechol
Sequence (P21964 whole entry): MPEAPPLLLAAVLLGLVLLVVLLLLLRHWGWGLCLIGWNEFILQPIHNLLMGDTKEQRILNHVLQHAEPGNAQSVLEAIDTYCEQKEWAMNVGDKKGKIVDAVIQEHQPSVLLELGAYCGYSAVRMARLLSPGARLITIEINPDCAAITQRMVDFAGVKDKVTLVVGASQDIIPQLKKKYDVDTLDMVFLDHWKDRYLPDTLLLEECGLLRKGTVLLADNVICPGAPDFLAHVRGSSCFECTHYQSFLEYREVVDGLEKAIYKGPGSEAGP
observed.property: inhibition at 0.25 h, 1 µM
Give the number first and the unit second.

[ask] Hi! What's the reported inhibition at 0.25 h, 1 µM for NC(=O)c1cccc(C#C[C@@H](CC[C@H](N)C(=O)O)C[C@H]2O[C@@H](n3cnc4c(N)ncnc43)[C@H](O)[C@@H]2O)c1 on COMT (catechol O-methyltransferase) (Homo sapiens, UniProt P21964)?
[reply] 0%

* * *

molecular target: DNA (cytosine-5)-methyltransferase 3A (Homo sapiens, UniProt Q9Y6K1)
Sequence (Q9Y6K1 whole entry, looked up): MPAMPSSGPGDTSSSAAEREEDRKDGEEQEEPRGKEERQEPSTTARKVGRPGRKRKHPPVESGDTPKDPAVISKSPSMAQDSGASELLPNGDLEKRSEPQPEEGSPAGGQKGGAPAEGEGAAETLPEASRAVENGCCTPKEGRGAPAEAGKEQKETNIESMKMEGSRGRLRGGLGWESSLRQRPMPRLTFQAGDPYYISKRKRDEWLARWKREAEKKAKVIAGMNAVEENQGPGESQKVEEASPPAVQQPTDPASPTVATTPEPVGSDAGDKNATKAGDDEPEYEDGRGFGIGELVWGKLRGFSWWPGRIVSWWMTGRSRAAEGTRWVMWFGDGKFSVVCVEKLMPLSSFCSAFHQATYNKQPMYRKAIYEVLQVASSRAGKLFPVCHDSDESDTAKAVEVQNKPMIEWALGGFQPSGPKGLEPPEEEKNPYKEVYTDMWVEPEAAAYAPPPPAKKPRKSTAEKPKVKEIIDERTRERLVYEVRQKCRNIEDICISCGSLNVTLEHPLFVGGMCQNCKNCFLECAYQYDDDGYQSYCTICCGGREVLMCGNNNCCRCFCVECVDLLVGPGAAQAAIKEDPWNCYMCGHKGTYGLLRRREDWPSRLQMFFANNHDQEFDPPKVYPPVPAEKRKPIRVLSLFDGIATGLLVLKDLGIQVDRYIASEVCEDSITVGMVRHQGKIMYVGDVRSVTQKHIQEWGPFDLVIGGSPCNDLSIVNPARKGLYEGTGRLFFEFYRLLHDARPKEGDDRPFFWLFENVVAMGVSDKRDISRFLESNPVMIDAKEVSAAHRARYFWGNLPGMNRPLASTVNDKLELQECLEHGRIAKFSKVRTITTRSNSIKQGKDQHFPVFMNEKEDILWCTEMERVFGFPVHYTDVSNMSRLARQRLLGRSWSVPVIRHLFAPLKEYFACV
observed.property: pIC50
Numbers only, as −log10 of the molar value.

[ask] Data request, read-out pIC50, for NC(=O)c1cccc(C#C[C@@H](CC[C@H](N)C(=O)O)C[C@H]2O[C@@H](n3cnc4c(N)ncnc43)[C@H](O)[C@@H]2O)c1
[reply] 5.12

* * *

Assignment: determine reported Ki for the given compounds.
Molecular target: Nicotinamide N-methyltransferase (Homo sapiens)
Sequence (P40261 whole entry): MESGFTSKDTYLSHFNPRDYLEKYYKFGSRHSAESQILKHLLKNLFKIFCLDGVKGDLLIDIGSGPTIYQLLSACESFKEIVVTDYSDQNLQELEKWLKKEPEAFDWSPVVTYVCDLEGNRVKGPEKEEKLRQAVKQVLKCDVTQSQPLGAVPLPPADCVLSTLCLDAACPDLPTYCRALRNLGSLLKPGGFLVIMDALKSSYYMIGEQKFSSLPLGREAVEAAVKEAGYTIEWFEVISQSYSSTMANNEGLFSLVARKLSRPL
Assay: Inhibition of N-terminal His6-tagged wild type human NNMT expressed in Escherichia coli NiCo21(DE3) assessed as reduction in 1-methylquinolinium level using quinoline as substrate in presence of SAM and measured every 27 seconds for 5.5 mins by fluorescence-based assay
Conditions: read-out: pKi (converted)
Give the number first and the unit second.

Use the examples below as a reference point.
NC(=O)c1cc(C#C[C@@H](CC[C@H](N)C(=O)O)C[C@H]2O[C@@H](n3cnc4c(N)ncnc43)[C@H](O)[C@@H]2O)ccn1 ... 8.91 nM
Nc1ncnc2c1ncn2[C@@H]1O[C@H](C[C@@H](C#Cc2cccc(S(N)(=O)=O)c2)CC[C@H](N)C(=O)O)[C@@H](O)[C@H]1O ... 195 nM
CO[C@@H]1O[C@H](C[C@@H](C#Cc2cccc(C(N)=O)c2)CC[C@H](N)C(=O)O)[C@@H](O)[C@H]1O ... 77600 nM
NC(=O)c1cc(C#C[C@@H](CC[C@H](N)C(=O)O)C[C@H]2O[C@@H](n3cnc4c(N)ncnc43)[C@H](O)[C@@H]2O)ccc1F ... 1.86 nM
Nc1ncnc2c1ncn2[C@@H]1O[C@H](C[C@@H](C#Cc2ccc3c(c2)C(=O)NCC3)CC[C@H](N)C(=O)O)[C@@H](O)[C@H]1O ... 55 nM
NC(=O)c1cccc(CC[C@@H](CC[C@H](N)C(=O)O)C[C@H]2O[C@@H](n3cnc4c(N)ncnc43)[C@H](O)[C@@H]2O)c1 ... 4.68 nM

# next compound below
[ask] Data request, read-out Ki, for NC(=O)c1cncc(C#C[C@@H](CC[C@H](N)C(=O)O)C[C@H]2O[C@@H](n3cnc4c(N)ncnc43)[C@H](O)[C@@H]2O)c1
[reply] 5.01 nM

* * *

biological target: UniProt:P21964; assay: Inhibition of human COMT expressed in Escherichia coli at 10 uM assessed as reduction in SAH level using pyrocatechol as substrate in presence of SAM incubated for 15 mins by LC-MS/MS analysis relative to control; conditions: recombinant human COMT expressed in Escherichia coli, probe pyrocatechol
observed.property: inhibition at 0.25 h, 10 µM (%)
One number for each entry, in %.

[ask] Hi! What's the reported inhibition at 0.25 h, 10 µM for NC(=O)c1cccc(C#C[C@@H](CC[C@H](N)C(=O)O)C[C@H]2O[C@@H](n3cnc4c(N)ncnc43)[C@H](O)[C@@H]2O)c1 on UniProt:P21964?
[reply] 43

* * *

target: INMT (indolethylamine N-methyltransferase) (Homo sapiens, UniProt O95050); assay: Inhibition of wild type human INMT expressed in Escherichia coli at 10 uM using tryptamine as substrate in presence of SAM incubated for 30 mins by MTase-Glo assay relative to control; conditions: probe tryptamine
Sequence (O95050 whole entry): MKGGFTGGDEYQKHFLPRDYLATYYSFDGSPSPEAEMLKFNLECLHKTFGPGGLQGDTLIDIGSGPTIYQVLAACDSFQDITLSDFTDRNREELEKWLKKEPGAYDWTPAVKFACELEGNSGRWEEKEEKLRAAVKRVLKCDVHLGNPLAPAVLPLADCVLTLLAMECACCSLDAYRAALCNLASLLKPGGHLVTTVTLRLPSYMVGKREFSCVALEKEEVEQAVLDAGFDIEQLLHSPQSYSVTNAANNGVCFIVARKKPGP
observed.property: inhibition at 0.5 h, 10 µM (%)
Answers are plain numbers, in %.

[ask] Data request, read-out inhibition at 0.5 h, 10 µM, for NC(=O)c1cccc(C#C[C@@H](CC[C@H](N)C(=O)O)C[C@H]2O[C@@H](n3cnc4c(N)ncnc43)[C@H](O)[C@@H]2O)c1
[reply] 53

* * *

molecular target: HNMT (histamine N-methyltransferase) (Homo sapiens); assay: Inhibition of human HNMT expressed in Escherichia coli at 1 uM assessed as reduction in SAH level using histamine as substrate in presence of SAM incubated for 15 mins by LC-MS/MS analysis relative to control; details: recombinant human HNMT expressed in Escherichia coli, probe histamine
Sequence (P50135 whole entry): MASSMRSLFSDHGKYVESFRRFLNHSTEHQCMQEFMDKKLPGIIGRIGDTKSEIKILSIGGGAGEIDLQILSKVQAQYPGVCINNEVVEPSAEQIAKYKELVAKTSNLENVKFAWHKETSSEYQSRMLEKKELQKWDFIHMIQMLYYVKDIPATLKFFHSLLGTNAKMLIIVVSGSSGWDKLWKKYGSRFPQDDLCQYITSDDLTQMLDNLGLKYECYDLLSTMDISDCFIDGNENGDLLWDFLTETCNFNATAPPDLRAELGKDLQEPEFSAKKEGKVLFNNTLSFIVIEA
observed.property: inhibition at 0.25 h, 1 µM
Give the number first and the unit second.

[ask] Hi! What's the reported inhibition at 0.25 h, 1 µM for NC(=O)c1cccc(C#C[C@@H](CC[C@H](N)C(=O)O)C[C@H]2O[C@@H](n3cnc4c(N)ncnc43)[C@H](O)[C@@H]2O)c1 on HNMT (histamine N-methyltransferase) (Homo sapiens)?
[reply] 6%

* * *

target: Nicotinamide N-methyltransferase (Homo sapiens, UniProt P40261); experiment: Inhibition of N-terminal His6-tagged wild type human NNMT expressed in Escherichia coli NiCo21(DE3) assessed as reduction in 1-methylquinolinium level using quinoline as substrate in presence of SAM and measured every 27 seconds for 5.5 mins by fluorescence-based assay; conditions: read-out: pKi (converted)
observed.property: Ki (nM)
Answers are plain numbers, in nM.

I have 4 compounds here; please give me Ki for each one.
1. NC(=O)c1cccc(C#C[C@@H]2C[C@H]2[C@H]2O[C@@H](n3cnc4c(N)ncnc43)[C@H](O)[C@@H]2O)c1
2. NC(=O)c1cccc(C#C[C@H](CC[C@H](N)C(=O)O)C[C@H]2O[C@@H](n3cnc4c(N)ncnc43)[C@H](O)[C@@H]2O)c1
3. NCCC[C@H](C#Cc1cccc(C(N)=O)c1)C[C@H]1O[C@@H](n2cnc3c(N)ncnc32)[C@H](O)[C@@H]1O
4. NC(=O)c1cccc(CCN(CC[C@H](N)C(=O)O)C[C@H]2O[C@@H](n3cnc4c(N)ncnc43)[C@H](O)[C@@H]2O)c1

[reply]
3890
123
57.5
912
